These data points were gathered from patent US11229654B2.

tested on: MC116 cell; assay: Anti-proliferation assay (MTS), MC116 cells; assay type: cell-based, human; conditions: Homo sapiens, single treatment, read-out: IC50
pIC50: −log10 of the molar value.
MEASUREMENT_NAME: pIC50

# get_value(readout='pIC50', item= CC[C@H](Nc1ncnc2[nH]cnc12)c1nc2cccc(F)c2c(=O)n1-c1ccccc1 )
< 5.00
